Documented In vitro activity relative to native peptide (%), vs. GIP (cAMP EC50) across a set of binders
Target: T1, human GIP receptor (human, UniProt P48546 22-466)
T1 sequence (looked up): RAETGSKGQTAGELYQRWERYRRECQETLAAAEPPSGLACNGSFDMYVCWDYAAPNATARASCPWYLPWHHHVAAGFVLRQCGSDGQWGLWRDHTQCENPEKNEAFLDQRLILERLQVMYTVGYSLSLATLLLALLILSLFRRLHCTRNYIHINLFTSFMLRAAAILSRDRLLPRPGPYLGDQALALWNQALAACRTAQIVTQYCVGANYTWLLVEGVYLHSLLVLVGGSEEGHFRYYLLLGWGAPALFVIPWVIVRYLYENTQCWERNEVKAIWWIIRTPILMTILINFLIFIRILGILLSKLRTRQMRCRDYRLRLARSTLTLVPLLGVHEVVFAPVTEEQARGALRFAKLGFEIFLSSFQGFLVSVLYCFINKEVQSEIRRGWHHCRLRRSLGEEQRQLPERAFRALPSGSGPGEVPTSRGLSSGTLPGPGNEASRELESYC
Assay: cell-based or functional assay
Positions of bridges follow the written chain, without caps; N, C: chain ends. Non-standard residues stand in square brackets, D forms with d. No end group written: not given here. *: point of attachment. Acetyl(2-(4-imidazolyl)) = O=C(Cc1c[nH]cn1)*; Aib = CC(C)(N)C(=O)O

{Acetyl(2-(4-imidazolyl))}-[Aib]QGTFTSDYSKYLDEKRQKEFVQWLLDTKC (bridge 15-19) [trigonal agonist of SEQ ID NO: 89] :: < 0.1%
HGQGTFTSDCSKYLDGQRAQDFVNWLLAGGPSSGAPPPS [trigonal agonist of SEQ ID NO: 48] :: < 0.1%
H[Aib]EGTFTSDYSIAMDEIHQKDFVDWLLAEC (bridge 16-20) [trigonal agonist of SEQ ID NO: 54] :: 0.1%
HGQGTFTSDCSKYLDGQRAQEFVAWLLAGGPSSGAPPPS [trigonal agonist of SEQ ID NO: 47] :: < 0.1%
{Acetyl(2-(4-imidazolyl))}-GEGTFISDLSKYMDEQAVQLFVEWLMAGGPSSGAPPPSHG [trigonal agonist of SEQ ID NO: 12] :: < 0.1%

query: Which In vitro activity relative to native peptide (%), vs. GIP (cAMP EC50) is listed for H[Aib]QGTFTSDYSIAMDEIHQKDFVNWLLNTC (bridge 16-20) [trigonal agonist of SEQ ID NO: 57] ?
result: 0.3%
